System: K562 CRISPRi cells
Assay: Constant region variant library pooled growth screen, K562
Type: cell-based, human
Conditions: sgRNA constant region variants; activity relative to the un-modified constant region cr995
testReadout: Mean relative activity
Output: the number by itself.

Entry cr421 (nucleic acid, listed as DNA, chemistry not fully specified) guide: GTTTAAGAGCTAAGCTGGAAACAGCATAGCAAGTTTAAATAAGGCTAGTCCGTTATCAACTTGAAAACGTGGCACCGAGTCGGTGCT needs its Mean relative activity filled in; supply it.
0.9381

Entry cr831 (nucleic acid, listed as DNA, chemistry not fully specified) guide: GTTTAAGAGCTAAGCTGGAAACAGCATAGCAAGTTTAAATAAGGCTAGTCCGTTATCAATTTGAAAAAATGGCACCGAGTCGGTGCT needs its Mean relative activity filled in; supply it.
0.962

Entry cr132 (nucleic acid, listed as DNA, chemistry not fully specified) guide: GTTTAAGAGCTAAGCTGGAAACAGCATAGCAAGTTTAAATAAGGCTAGTCCGTTATCAACTTGAGAAAGTGGCACTGAGTCAGTGCT needs its Mean relative activity filled in; supply it.
0.9196

Entry cr703 (nucleic acid, listed as DNA, chemistry not fully specified) guide: GTTTAAGAGCTAAGCTGGAAACAGCATAGCAAGTTTAAATAAGGCTAGTCCGTTATCAACTTGAGGAAGTGGCACCGAGTCGGTGCT needs its Mean relative activity filled in; supply it.
0.9472
